# target: EPHB1 (UniProt P54762)
# Sequence (P54762 whole entry, looked up): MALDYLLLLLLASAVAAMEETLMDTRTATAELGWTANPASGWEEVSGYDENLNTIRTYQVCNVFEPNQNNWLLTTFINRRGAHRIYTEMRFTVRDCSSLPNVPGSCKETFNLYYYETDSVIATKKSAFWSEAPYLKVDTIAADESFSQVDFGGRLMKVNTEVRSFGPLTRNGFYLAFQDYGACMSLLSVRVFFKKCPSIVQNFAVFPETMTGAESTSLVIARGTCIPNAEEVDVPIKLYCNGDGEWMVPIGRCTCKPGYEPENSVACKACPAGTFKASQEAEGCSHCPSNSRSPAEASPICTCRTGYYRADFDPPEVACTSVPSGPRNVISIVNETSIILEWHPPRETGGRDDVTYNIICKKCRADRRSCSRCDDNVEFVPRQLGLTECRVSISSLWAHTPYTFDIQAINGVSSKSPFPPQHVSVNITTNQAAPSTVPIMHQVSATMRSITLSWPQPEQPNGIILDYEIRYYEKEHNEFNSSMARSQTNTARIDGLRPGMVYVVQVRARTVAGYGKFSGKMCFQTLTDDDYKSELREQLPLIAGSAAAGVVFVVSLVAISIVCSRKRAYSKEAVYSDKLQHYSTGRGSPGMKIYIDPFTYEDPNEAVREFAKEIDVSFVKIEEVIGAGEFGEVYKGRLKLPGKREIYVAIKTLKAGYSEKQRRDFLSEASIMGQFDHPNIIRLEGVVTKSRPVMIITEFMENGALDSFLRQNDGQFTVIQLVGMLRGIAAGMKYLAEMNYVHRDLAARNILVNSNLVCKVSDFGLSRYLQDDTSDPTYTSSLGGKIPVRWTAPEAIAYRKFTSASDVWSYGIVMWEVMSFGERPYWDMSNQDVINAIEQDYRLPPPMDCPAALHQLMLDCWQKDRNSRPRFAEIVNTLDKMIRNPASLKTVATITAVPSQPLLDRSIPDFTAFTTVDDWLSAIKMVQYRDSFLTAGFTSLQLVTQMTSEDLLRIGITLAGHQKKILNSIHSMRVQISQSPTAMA
# assayComment: phosphorylation enrichment, bacterial display (enrichment ratio); higher = better substrate or ligand; peptides without Tyr show the background;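 also: 11-residue human phosphosite peptides and single-mutation variants displayed on the E. coli surface, counted by deep sequencing, each peptide's frequency after selection divided by its frequency in the unselected input library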;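 also: frequency after pTyr selection over input frequency; kinase dosed for 20-30% of maximal phosphorylation in three min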
Decide using phosphorylation enrichment: a value greater than or equal to 0.6 is 1 (yes), a smaller one is 0 (no).

| primarySequence | assignedClass |
| --- | --- |
| MKGDFYCFLAE [YWHAG_Y131_R132C_YF] | 1 (yes) |
| AYRRGYFDEEM [PLEC_Y2971] | 0 (no) |
| RREWFYEVIIV [BACE1_Y260_YF] | 1 (yes) |
| YLGEEYVKAVG [TF_Y674] | 0 (no) |
| AAVNGYAFGGG [ECHS1_Y137] | 0 (no) |
| VISNAYVDLSP [HSD17B4_Y602_A606S] | 0 (no) |
| AKLKDYFIFNK [CCDC42_Y149_YF] | 0 (no) |
| SQGRQYQELPR [KCNH2_Y1009_R1005Q] | 0 (no) |
| GSERDYTFEEL [EIF2S2_Y174_YF] | 0 (no) |
| NDDDVYLSLEE [VAV2_Y142_R143L] | 1 (yes) |
| LHQSTYQRFDV [SLC7A14_Y693_YF] | 1 (yes) |
| PPLMLYNPTTF [EGFR_Y270_YF] | 1 (yes) |
| AKQVGCENAGT [PC_Y304_Y304C] | 0 (no) |
| SSREGYVSHHN [FAM83B_Y433] | 0 (no) |
| AGQERYRAITS [RAB11B_Y73] | 0 (no) |
| NVTRKYTRQIL [MAP3K2_Y463] | 0 (no) |
| FTHSDYQFGQR [PKP2_Y166_S169G_YF] | 0 (no) |
| SKHRLYSDLQT [PTCHD1_Y84] | 0 (no) |
| AELVQYYMEHH [PTPN11_Y80] | 1 (yes) |
| HGQVNYEEFVQ [CALM2_Y139_D134H] | 1 (yes) |
| LQTYRYHGHSM [PDHA1_Y289] | 0 (no) |
| PDMHSYMVRFN [GRIN2D_Y732_YF] | 0 (no) |
| RLSPEYKQNEI [GJB1_Y243] | 0 (no) |
| KRFRIYHLATS [BRCA2_Y3009_YF] | 0 (no) |
| TEALYYTDDTA [ADPRS_Y75] | 1 (yes) |
| KRPAVYIDEEA [EPM2A_Y304] | 0 (no) |
| DKEKWYPLGNS [PIK3C2G_Y1438] | 0 (no) |
| QGLRLYRSHLA [BTK_Y617_P619S] | 1 (yes) |
| SENAFYLSPHI [COL6A3_Y2827_D2831H] | 0 (no) |
| RVILRYVNPGT [LAMA3_Y791] | 1 (yes) |
| KDGNGYISAAE [CALM1_Y100] | 0 (no) |
| PSAELYSFALP [PDGFRB_Y716_N718Y_YF] | 1 (yes) |
| SVVVTYEPPEV [TP53_Y220_P219T] | 1 (yes) |
| IGMIIYFARKA [VCAM1_Y718] | 0 (no) |
| CTTIPYNYMCN [TP53_Y234_H233P] | 0 (no) |
| IGEGTYGQVFK [CDK13_Y716_YF] | 1 (yes) |
| DLVLQYLRVPL [F9_Y371_A366D] | 0 (no) |
| RPGSGYTNIMR [PKLR_Y564] | 0 (no) |
| KTGNIYRTEYG [MRPL3_Y265_M261T] | 0 (no) |
| RPPFTYATLIH [FOXP3_Y342_R347H] | 1 (yes) |
| QGRQTYLLQPA [DDR2_Y813_P815L] | 0 (no) |
| RAVLLYEYVGK [NATD1_Y45] | 1 (yes) |
